Experiment: Cytotoxicity, CellTiter Assay
Format: cell-based
Conditions: human, HCT8 cells, 400–10 µg/mL tested
Listing of recorded IC50 at 24 h by entry.
Answer with a number only, understood to be in µg/mL.

Take a look at these entries with their results.
COMPOUND STRUCTURE | IC50 at 24 h, µg/mL
O=C(Nc1cccc(Cl)c1)ON=C1c2ccccc2COc2ccccc21 | 304
O=C(Nc1cccc(C(F)(F)F)c1)ON=C1c2ccccc2COc2ccccc21 | 54.3
Cc1cccc(NC(=O)ON=C2c3ccccc3COc3ccccc32)c1 | 264

Ask: May I ask what IC50 at 24 h has been recorded for `O=C(Nc1ccc(F)cc1)ON=C1c2ccccc2COc2ccccc21` ?
Reply: 252
